# ASSAY REMARKS: qHTS assay for identifying genotoxic compounds that show differential cytotoxicity against isogenic chicken DT40 cell lines with known DNA damage response pathways - wild type cell line (AID 743012); note: nearly all actives have a fitted effect of over 60% in size
# SETTINGS: DT40 wild type chicken cells viability, CellTiter-Glo, 40 h; series mostly up to 68.4 µM
# From the text: U.S. Tox21 Program National Center for Advancing Translational Sciences [NCATS] NIH Chemical Genomics Center [NCGC] U.S. Environmental Protection Agency [EPA] National Institutes of Environmental Health Sciences [NIEHS] National Toxicology Program [NTP] U.S. Food and Drug Administration [FDA] Tox21 Assay Overview: DNA repair pathways play a critical role in cellular homeostasis by repairing DNA damage induced by endogenous processes and xenobiotics. […]
Results filed as inconclusive are left out. Activity calls are given as the source filed them. Calls come from the whole dose curve; as a rule, active = well fitted cell-killing curve with a large enough effect in the repeat runs; inconclusive = weak or mixed curves, or effect the other way; inactive = no such curve, though single readings can be large or run the other way.
ASSAY METRIC: outcome

>>> reading("O=P(O)(O)C(O)(Cc1cccnc1)P(=O)(O)O")
"inactive"
>>> reading("CC(=O)SC[C@@H](C)C(=O)N1CCC[C@H]1C(=O)N[C@@H](Cc1ccccc1)C(=O)O")
"inactive"
>>> reading("C=CCn1cc[n+](C)c1")
"inactive"
>>> reading("O=C(OOC(=O)c1ccccc1)c1ccccc1")
"inactive"
>>> reading("c1coc(Cn2cccc2)c1")
"inactive"
>>> reading("Cc1nc2ccc(Cl)cc2[nH]1")
"inactive"
>>> reading("C=CCCCCCCCCCCCCCC")
"inactive"
>>> reading("Cc1cc(C)c(N)c(Cl)c1")
"inactive"
>>> reading("CCCCCCCCCCCCCC(=O)OCC")
"inactive"
>>> reading("O=C(O)/C=C(\\CC(=O)O)C(=O)O")
"inactive"
>>> reading("CC(C)CC(O)Cc1ccccc1 (stereo not drawn)")
"inactive"
>>> reading("COC(=O)c1ccc(C(=O)O)cc1")
"inactive"
>>> reading("CCc1ncc(C)[nH]1")
"inactive"
>>> reading("Cc1ccc2cccnc2c1")
"inactive"
>>> reading("CC(=O)OC/C=C(/C)CCC=C(C)C")
"inactive"
>>> reading("CCCCOCCCC")
"inactive"
>>> reading("C[C@@H]1NC(=O)[C@@H](N)CNC(=O)[C@H](C2CCNC(N)=N2)NC(=O)/C(=C/NC(N)=O)NC(=O)[C@H](CNC(=O)C[C@@H](N)CCCN)NC1=O (stereo partly drawn)")
"inactive"
>>> reading("Cc1cc(O)c(Cl)cc1C")
"inactive"
>>> reading("COc1cc2nc(N3CCN(C(=O)C4CCCO4)CC3)nc(N)c2cc1OC (stereo not drawn)")
"inactive"
>>> reading("CC(=O)OC1CCC(C(C)(C)C)CC1 (stereo not drawn)")
"inactive"
>>> reading("CC1(C)S[C@@H]2[C@H](NC(=O)Cc3ccccc3)C(=O)N2[C@H]1C(=O)O (tested in a mixture with another compound)")
"inactive"
>>> reading("CC12CCCC=C1C(=O)OC2=O (stereo not drawn)")
"inactive"
>>> reading("NC(=O)CC[C@@H](N)C(=O)O")
"inactive"
>>> reading("CN1CCN(C(=O)C2CCCCC2)CC1")
"inactive"
>>> reading("N=C(N)N1CCc2ccccc2C1")
"inactive"
>>> reading("COC(=O)c1ccccc1Cl")
"inactive"
>>> reading("N[C@H]1C(O)O[C@H](CO)[C@@H](O)[C@@H]1O (stereo partly drawn)")
"inactive"
>>> reading("CC(C)(C)c1ccc(N)cc1")
"inactive"
